biological target: human-derived CaMK2γ protein (Homo sapiens, UniProt Q13555)
Sequence (Q13555 whole entry): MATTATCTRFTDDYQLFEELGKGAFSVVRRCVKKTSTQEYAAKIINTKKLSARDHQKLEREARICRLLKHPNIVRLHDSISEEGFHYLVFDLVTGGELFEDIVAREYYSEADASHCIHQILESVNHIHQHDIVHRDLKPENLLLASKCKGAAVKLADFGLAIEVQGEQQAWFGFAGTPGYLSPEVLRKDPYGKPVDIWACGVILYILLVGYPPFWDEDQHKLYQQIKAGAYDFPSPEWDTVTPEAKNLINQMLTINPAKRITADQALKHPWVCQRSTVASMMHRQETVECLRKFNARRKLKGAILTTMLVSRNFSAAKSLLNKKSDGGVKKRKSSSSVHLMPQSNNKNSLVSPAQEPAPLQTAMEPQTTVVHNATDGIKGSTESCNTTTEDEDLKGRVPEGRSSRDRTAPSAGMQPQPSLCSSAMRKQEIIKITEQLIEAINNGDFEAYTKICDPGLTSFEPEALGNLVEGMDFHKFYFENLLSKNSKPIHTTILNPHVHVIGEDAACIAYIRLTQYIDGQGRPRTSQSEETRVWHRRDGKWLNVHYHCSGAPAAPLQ
measured.quantity: Kd (µM)
Entry rule: numbers only, all in µM.

What Kd appears in the records for this compound with human-derived CaMK2γ protein (Homo sapiens, UniProt Q13555)? `CN1CCC(=C2c3ccccc3CCn3c(C=O)cnc32)CC1` 25.4

These measurements were taken from patent US11992493B1.
